# assayRemarks: Binding affinity to salmon sperm DNA assessed as increase in thermal melting temperature by spectrophotometric analysis
# experimentalConditions: Salmonidae
recordedEndpoint: ΔTm (°C)
Numbers only, in °C.

// worked examples, ΔTm included
compoundstructurestring=N=C(N)Oc1ccc(Oc2ccc(O)cc2)cc1 unitannotation=°C valueobserved=4
compoundstructurestring=N=C(N)Oc1ccc(NC(=O)c2ccc(OC(=N)N)cc2)cc1 unitannotation=°C valueobserved=2
compoundstructurestring=N=C(N)Oc1ccc(Cc2ccc(O)cc2)cc1 unitannotation=°C valueobserved=2
compoundstructurestring=N=C(N)Oc1ccc(Sc2ccc(OC(=N)N)cc2)cc1 unitannotation=°C valueobserved=6
compoundstructurestring=N=C(N)Oc1ccc(Oc2ccc(OC(=N)N)cc2)cc1 unitannotation=°C valueobserved=5
compoundstructurestring=N=C(N)Oc1ccc(Sc2ccc(O)cc2)cc1 unitannotation=°C valueobserved=2

We now examine a further compound.
Task: Consider the compound shown here: N=C(N)Oc1ccc(Cc2ccc(OC(=N)N)cc2)cc1 What is its recorded ΔTm?
Output: 4

* * *

Provide the reported pKa of each item.
# assayRemarks: Dissociation constant, pKa of the compound
# Type: physicochemical
One number for each entry.

// worked examples, pKa included
compound=c1ccc(NC2=NCCN2)cc1 valueobserved=9.16
compound=N=C(N)Oc1ccccc1 valueobserved=8.29

Task: Consider the compound shown here: N=C(N)Nc1ccccc1 [PHENYLGUANIDINE] What is its recorded pKa?
Output: 10.9

* * *

# assayRemarks: Dissociation constant, pKa of the compound in 10 mM sodium phosphate buffer at pH 2 by UV spectroscopic analysis
# Format: physicochemical
recordedEndpoint: pKa

Task: Consider the molecule shown here: N=C(N)Oc1ccc(Oc2ccc(OC(=N)N)cc2)cc1 What is its recorded pKa?
Output: 10.4

The measurements presented in this section are drawn from ChEMBL document CHEMBL3808379.
